B1: tRNA (parent)
chain: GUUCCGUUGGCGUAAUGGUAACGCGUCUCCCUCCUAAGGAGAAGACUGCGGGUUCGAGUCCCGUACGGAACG

# Variants of: B1
# protocol-summary: yeast fitness, log relative to wild type (ln ratio); higher = fitter; tRNA-Arg(CCU), competitive growth, 37 C, 1 M NaCl
Label Satisfied when yeast fitness (ln) is at or above -0.07; otherwise label Not satisfied.

Here are 3 variants together with their reported answers.
U2C G6A C27U A43C C66U A69G A70G; Satisfied
G1A U2G C46U C66U A69G C71U; Not satisfied
U2C C27U A43C C66U A69G A70U C71U; Not satisfied

State whether the measured yeast fitness (ln) reaches -0.07, counting equality as reaching it, for U2G G6A A43C C46U C66A A69G C71U
Not satisfied

Identify whether the reported yeast fitness (ln) of the following variant is -0.07 or greater: U2C G6A C46U A70G
Satisfied
